Molecular target: UniProtKB Q9UM07
Test: RFMS Assay 2 (rapid-fire mass spectrum PAD4 inhibition assay, peptide substrate)
Type: biochemical
Details: 35 nM recombinant human PAD4, substrate TSTGGRQGSHH, room temperature for 30 minutes; read-out: human PAD4 (hPAD4) IC50, RFMS Assay 2
Description: Stock compounds were dissolved and stored in 100% DMSO. Compound solutions were prepared via serial dilution at 3-fold intervals in DMSO with top compound concentration at […] in each assay. 0.25 μl of compound solution was transferred from the compound plate to the assay plate by using an acoustic dispenser. […] MRM transitions for substrate and product were monitored in positive ESI mode at m/z=562.3/969.7 and m/z=562.8/541.3 respectively. […]
PARAMETER MEASURED: IC50

* Cn1c(-c2cc3ccnc(OC[C@@H]4CNC(=O)C4)c3n2CC2CC2)nc2cc3c(nc21)CCN(C[C@H](N)CF)C3=O | 101 to 500 nM
* COc1cc(F)cc2cc(-c3nc4cc5c(nc4n3C)CCN(C[C@H](N)CF)C5=O)n(Cc3ccno3)c12 | 101 to 500 nM
* Cn1c(-c2cc3cccc(OCCn4ccnc4)c3n2CC2CC2)nc2cc3c(nc21)CCN(C[C@H](N)CF)C3=O | 11 to 100 nM

Lab note: next molecule to report on.
Task item: What measured IC50 goes with `Cn1c(-c2cc3cccc(OCCc4cnn[nH]4)c3n2CC2CC2)nc2cc3c(nc21)CCN(C[C@H](N)CF)C3=O` ?
Reply: 11 to 100 nM

###

For each record, write down the corresponding IC50.
target: hPAD4 enzyme (Homo sapiens); assay: RFMS Assay 1 (rapid-fire mass spectrum PAD4 inhibition assay, BAEE substrate); assay type: biochemical; details: 5 nM hPAD4 enzyme, 250 μM BAEE, 30 mins compound and enzyme preincubation at 37° C., 90 min enzyme/substrate reaction

Below, each entry is followed by its recorded IC50 result.
- COc1nccc2cc(-c3nc4cc5c(nc4n3C)CCN(C[C@H](N)CF)C5=O)n(CC(F)(F)F)c12: > 1000 nM
- C[C@H](O)C(=O)N1CCC(c2cccc3cc(-c4nc5cc6c(nc5n4C)CCN(C[C@H](N)CF)C6=O)n(CC4CC4)c23)CC1: 101 to 500 nM
- Cn1c(-c2cc3cccc(OCC(C)(C)n4ccnc4)c3n2CC2CC2)nc2cc3c(nc21)CCN(C[C@H](N)CF)C3=O: ≤ 10 nM
- COc1c(F)ccc2cc(-c3nc4cc5c(nc4n3C)CCN(C[C@H](N)CF)C5=O)n(Cc3ccno3)c12: 11 to 100 nM
- Cn1c(-c2cc3cccc(OCCc4ccncc4)c3n2CC2CC2)nc2cc3c(nc21)CCN(C[C@H](N)CF)C3=O: 11 to 100 nM
- Cn1c(-c2cc3ccc(C(C)(C)O)nc3n2CC2CC2)nc2cc3c(nc21)CCN(C[C@H](N)CF)C3=O: 11 to 100 nM

Lab note: next compound to report on.
Task item: What measured IC50 goes with `C[C@@H](Cn1ccnc1)Oc1cccc2cc(-c3nc4cc5c(nc4n3C)CCN(C[C@H](N)CF)C5=O)n(CC3CC3)c12` ?
Reply: 11 to 100 nM

###

For each record, write down the corresponding IC50.
molecular target: hPAD4 enzyme (Homo sapiens, UniProt Q9UM07); assay: RFMS Assay 1 (rapid-fire mass spectrum PAD4 inhibition assay, BAEE substrate); type: biochemical; conditions: 5 nM hPAD4 enzyme, 250 μM BAEE, 30 mins compound and enzyme preincubation at 37° C., 90 min enzyme/substrate reaction
Sequence (Q9UM07 whole entry): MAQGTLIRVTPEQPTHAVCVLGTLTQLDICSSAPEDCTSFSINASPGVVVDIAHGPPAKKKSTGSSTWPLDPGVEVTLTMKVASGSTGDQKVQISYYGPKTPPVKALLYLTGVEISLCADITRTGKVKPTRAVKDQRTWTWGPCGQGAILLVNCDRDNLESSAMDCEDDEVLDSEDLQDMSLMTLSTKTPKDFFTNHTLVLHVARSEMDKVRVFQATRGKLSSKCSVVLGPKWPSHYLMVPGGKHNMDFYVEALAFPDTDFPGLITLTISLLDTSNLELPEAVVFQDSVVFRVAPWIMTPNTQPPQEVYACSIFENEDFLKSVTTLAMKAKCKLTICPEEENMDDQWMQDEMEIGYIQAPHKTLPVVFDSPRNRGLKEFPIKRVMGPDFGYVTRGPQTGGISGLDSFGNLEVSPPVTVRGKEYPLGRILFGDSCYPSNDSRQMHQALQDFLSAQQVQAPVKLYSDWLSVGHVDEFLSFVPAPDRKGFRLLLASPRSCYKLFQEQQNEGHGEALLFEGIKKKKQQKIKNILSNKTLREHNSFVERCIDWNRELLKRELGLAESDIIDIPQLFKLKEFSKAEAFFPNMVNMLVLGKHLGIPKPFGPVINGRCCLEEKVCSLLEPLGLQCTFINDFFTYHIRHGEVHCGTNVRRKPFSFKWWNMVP

Give IC50 for each listed item.
1. COc1cccc2cc(-c3nc4cc5c(nc4n3C)CCN(C[C@H](N)CF)C5=O)n(CC3OCCO3)c12 [Example 16]
2. Cn1c(-c2cc3cccc(NC(=O)Cn4ccnc4)c3n2CC2CC2)nc2cc3c(nc21)CCN(C[C@H](N)CF)C3=O [Example 100]
3. COCCn1c(-c2nc3cc4c(nc3n2C)CCN(C[C@H](N)CF)C4=O)cc2cccc(OC(F)Cn3ccnc3)c21 (single isomer, unassigned) [Example 77a]
4. CC(C(F)Oc1cccc2cc(-c3nc4cc5c(nc4n3C)CCN(C[C@H](N)CF)C5=O)n(CC3CC3)c12)n1ccnc1 (single isomer, unassigned) [Example 78c]
5. C[C@H](Cn1ccnc1)Oc1cccc2cc(-c3nc4cc5c(nc4n3C)CCN(C[C@H](N)CF)C5=O)n(CC3CC3)c12 [Example 62]
6. Cn1c(-c2cc3ccccc3n2CC2CC2)nc2cc3c(nc21)CCN(C[C@H](N)CF)C3=O [Example 20]

Reply:
1: 101 to 500 nM; 2: 501 to 1000 nM; 3: 11 to 100 nM; 4: 11 to 100 nM; 5: 11 to 100 nM; 6: > 1000 nM

###

molecular target: hPAD4 enzyme (Homo sapiens); experiment: RFMS Assay 1 (rapid-fire mass spectrum PAD4 inhibition assay, BAEE substrate); format: biochemical; conditions: 5 nM hPAD4 enzyme, 250 μM BAEE, 30 mins compound and enzyme preincubation at 37° C., 90 min enzyme/substrate reaction
For each record, write down the corresponding IC50.

Below, each entry is followed by its recorded IC50 result.
* COc1cccc2cc(-c3nc4cc5c(nc4n3C)CCN(C[C@H](N)CF)C5=O)n(CCOC(F)F)c12 | 101 to 500 nM
* Cn1c(-c2cc3cccc(/C=C/Cn4cnc(F)c4)c3n2CC2CC2)nc2cc3c(nc21)CCN(C[C@H](N)CF)C3=O | 11 to 100 nM
* C[C@@H](Cn1cnc(F)c1)Oc1cccc2cc(-c3nc4cc5c(nc4n3C)CCN(C[C@H](N)CF)C5=O)n(CC3CC3)c12 | ≤ 10 nM

Lab note: next compound to report on.
Task item: Which IC50 is reported with hPAD4 enzyme (Homo sapiens) for this entry: `C[C@H](COc1cccc2cc(-c3nc4cc5c(nc4n3C)CCN(C[C@H](N)CF)C5=O)n(CC3CC3)c12)n1cnc(C#N)c1` ?
Reply: 101 to 500 nM

###

target: hPAD4 enzyme (Homo sapiens); assay: RFMS Assay 1 (rapid-fire mass spectrum PAD4 inhibition assay, BAEE substrate); type: biochemical; conditions: 5 nM hPAD4 enzyme, 250 μM BAEE, 30 mins compound and enzyme preincubation at 37° C., 90 min enzyme/substrate reaction
pIC50: −log10 of the molar value.
PARAMETER MEASURED: pIC50

* [2H]c1nc([2H])n(CCOc2cccc3cc(-c4nc5cc6c(nc5n4C)CCN(C[C@H](N)CF)C6=O)n(CC4CC4)c23)c1[2H] | ≥ 8.00
* Cn1c(-c2cc3cccc(OCCn4cncc4F)c3n2CC2CC2)nc2cc3c(nc21)CCN(C[C@H](N)CF)C3=O | 7.00 to 7.96
* COc1cccc2cc(-c3nc4cc5c(nc4n3C)CCN(C[C@H](N)CF)C5=O)n(CC3CC3(F)F)c12 (stereo partly shown) | 6.30 to 7.00
* C[C@@H](COc1cccc2cc(-c3nc4cc5c(nc4n3C)CCN(C[C@H](N)CF)C5=O)n(CC3CC3)c12)n1ccnc1 | 7.00 to 7.96
* CC(Oc1cccc2cc(-c3nc4cc5c(nc4n3C)CCN(C[C@H](N)CF)C5=O)n(CC3CC3)c12)c1cc[nH]n1 (single isomer, unassigned) [Example 49b] | 6.30 to 7.00

Give pIC50 for each listed item.
1. COc1cccc2cc(-c3nc4cc5c(nc4n3C)CCN(C[C@H](N)CF)C5=O)n(CC(F)F)c12
2. Cc1nnc(CCOc2cccc3cc(-c4nc5cc6c(nc5n4C)CCN(C[C@H](N)CF)C6=O)n(CC4CC4)c23)s1

Reply:
1: 6.30 to 7.00; 2: 6.30 to 7.00

###

For each record, write down the corresponding pIC50.
target: hPAD4 enzyme (Homo sapiens, UniProt Q9UM07); assay: RFMS Assay 2 (rapid-fire mass spectrum PAD4 inhibition assay, peptide substrate); type: biochemical; settings: 35 nM recombinant human PAD4, substrate TSTGGRQGSHH, room temperature for 30 minutes; read-out: human PAD4 (hPAD4) IC50, RFMS Assay 2
pIC50: −log10 of the molar value.

Below, each entry is followed by its recorded pIC50 result.
* Cc1nnc(CCOc2cccc3cc(-c4nc5cc6c(nc5n4C)CCN(C[C@H](N)CF)C6=O)n(CC4CC4)c23)o1 [Example 54] | 7.00 to 7.96
* Cc1cn(CCOc2cccc3cc(-c4nc5cc6c(nc5n4C)CCN(C[C@H](N)CF)C6=O)n(CC4CC4)c23)cn1 [Example 72] | 6.30 to 7.00
* CC(Oc1cccc2cc(-c3nc4cc5c(nc4n3C)CCN(C[C@H](N)CF)C5=O)n(CC3CC3)c12)c1cc[nH]n1 (single isomer, unassigned) [Example 49b] | 6.30 to 7.00
* Cc1cncn1CCOc1cccc2cc(-c3nc4cc5c(nc4n3C)CCN(C[C@H](N)CF)C5=O)n(CC3CC3)c12 [Example 71] | 6.30 to 7.00
* CC(Oc1cccc2cc(-c3nc4cc5c(nc4n3C)CCN(C[C@H](N)CF)C5=O)n(CC3CC3)c12)c1cc[nH]n1 (single isomer, unassigned) [Example 49a] | 7.00 to 7.96
* Cc1cccc2cc(-c3nc4cc5c(nc4n3C)CCN(C[C@H](N)CF)C5=O)n(Cc3ccno3)c12 [Example 17] | 6.00 to 6.30

Give pIC50 for each listed item.
1. Cn1c(-c2cc3cccc(OC[C@H]4CCC(=O)NC4)c3n2CC2CC2)nc2cc3c(nc21)CCN(C[C@H](N)CF)C3=O [Example 36]
2. Cn1c(-c2cc3cccc(OC[C@@H]4CCC(=O)NC4)c3n2CC2CC2)nc2cc3c(nc21)CCN(C[C@H](N)CF)C3=O [Example 37]
3. C[C@H](COc1cccc2cc(-c3nc4cc5c(nc4n3C)CCN(C[C@H](N)CF)C5=O)n(CC3CC3)c12)n1cnc(F)c1 [Example 85]
4. COc1cccc2cc(-c3nc4cc5c(nc4n3C)CCN(C[C@H](N)CF)C5=O)n(Cc3nc(C)cs3)c12 [Example 14]
5. COc1ccc2cc(-c3nc4cc5c(nc4n3C)CCN(C[C@H](N)CF)C5=O)n(CC3CC3)c2c1 [Example 18]

Reply:
1. < 6.00
2. 6.00 to 6.30
3. 7.00 to 7.96
4. 6.00 to 6.30
5. 6.00 to 6.30

Give pIC50 for each listed item.
1. Cn1c(-c2cc3cccc(OC(F)Cn4ccnc4)c3n2CC2CC2)nc2cc3c(nc21)CCN(C[C@H](N)CF)C3=O (single isomer, unassigned) [Example 74b]
2. COc1cccc2cc(-c3nc4cc5c(nc4n3C)CCN(C[C@H](N)CF)C5=O)n(Cc3ncc(C)s3)c12 [Example 10]
3. COc1cccc2cc(-c3nc4cc5c(nc4n3C)CCN(C[C@H]3COCCN3)C5=O)n(CC3(F)CC3)c12 [Example 26]

Reply:
7.00 to 7.96
< 6.00
6.30 to 7.00
